- system_name: IKBKB (IKK-β) (Homo sapiens, UniProt O14920)
- Construct: purchased Invitrogen (Paisley, UK)
- Sequence (O14920 whole entry): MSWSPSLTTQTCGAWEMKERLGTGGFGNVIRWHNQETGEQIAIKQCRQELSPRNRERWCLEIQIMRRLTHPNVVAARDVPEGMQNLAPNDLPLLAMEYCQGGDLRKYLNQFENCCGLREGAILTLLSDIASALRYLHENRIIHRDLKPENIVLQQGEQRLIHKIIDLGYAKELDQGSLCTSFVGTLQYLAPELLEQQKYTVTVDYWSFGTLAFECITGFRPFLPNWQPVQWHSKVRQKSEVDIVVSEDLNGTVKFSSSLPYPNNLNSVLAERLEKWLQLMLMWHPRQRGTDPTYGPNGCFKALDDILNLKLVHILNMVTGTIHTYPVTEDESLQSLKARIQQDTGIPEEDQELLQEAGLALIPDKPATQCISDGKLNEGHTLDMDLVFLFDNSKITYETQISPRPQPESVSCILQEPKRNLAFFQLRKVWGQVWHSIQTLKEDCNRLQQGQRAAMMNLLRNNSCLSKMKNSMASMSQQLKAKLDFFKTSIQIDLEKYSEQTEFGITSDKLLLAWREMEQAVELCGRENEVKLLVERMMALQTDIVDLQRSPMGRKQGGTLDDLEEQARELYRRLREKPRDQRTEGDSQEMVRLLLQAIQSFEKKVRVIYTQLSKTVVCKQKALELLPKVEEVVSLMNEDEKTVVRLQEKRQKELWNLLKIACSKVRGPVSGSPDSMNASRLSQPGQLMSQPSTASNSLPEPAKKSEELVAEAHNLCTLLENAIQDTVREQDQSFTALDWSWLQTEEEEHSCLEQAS
- experiment: IKKβ enzyme assay (Z'-LYTE, Invitrogen)
- Assay type: biochemical
- condition_summary: ATP at or close to Km; IC50 range; read-out: Inhibitor activity versus IKKβ
measurement_type: IC50

Example entries begin here.
[
  {
    "compound": "CC(C)(NCc1cccc(-c2cc(C(N)=O)c(NC(N)=O)s2)c1)C(=O)OC1CCCC1 [Example 1]",
    "system_name": "IKBKB (IKK-β) (Homo sapiens, UniProt O14920)",
    "IC50": "< 500 nM"
  },
  {
    "compound": "CC(C)(NCc1ccc(-c2cc(C(N)=O)c(NC(N)=O)s2)cc1)C(=O)OC1CCCC1 [Example 5]",
    "system_name": "IKBKB (IKK-β) (Homo sapiens, UniProt O14920)",
    "IC50": "< 500 nM"
  },
  {
    "compound": "CC(C)(NC(=O)c1cccc(-c2cc(C(N)=O)c(NC(N)=O)s2)c1)C(=O)O [Example 9]",
    "system_name": "IKBKB (IKK-β) (Homo sapiens, UniProt O14920)",
    "IC50": "< 500 nM"
  },
  {
    "compound": "CC(C)(NCCc1cccc(-c2cc(C(N)=O)c(NC(N)=O)s2)c1)C(=O)OC1CCCC1 [Example 6]",
    "system_name": "IKBKB (IKK-β) (Homo sapiens, UniProt O14920)",
    "IC50": "500 to 1000 nM"
  },
  {
    "compound": "CC(C)(NC(=O)c1cccc(-c2cc(C(N)=O)c(NC(N)=O)s2)c1)C(=O)OC1CCCC1 [Example 3]",
    "system_name": "IKBKB (IKK-β) (Homo sapiens, UniProt O14920)",
    "IC50": "< 500 nM"
  },
  {
    "compound": "CC(C)(NCCc1cccc(-c2cc(C(N)=O)c(NC(N)=O)s2)c1)C(=O)O [Example 10]",
    "system_name": "IKBKB (IKK-β) (Homo sapiens, UniProt O14920)",
    "IC50": "< 500 nM"
  },
  {
    "compound": "CC(C)(NCc1cccc(-c2cc(C(N)=O)c(NC(N)=O)s2)c1)C(=O)O [Example 8]",
    "system_name": "IKBKB (IKK-β) (Homo sapiens, UniProt O14920)",
    "IC50": "< 500 nM"
  },
  {
    "compound": "CC(C)(C)OC(=O)C(C)(C)NCc1cccc(-c2cc(C(N)=O)c(NC(N)=O)s2)c1 [Example 2]",
    "system_name": "IKBKB (IKK-β) (Homo sapiens, UniProt O14920)",
    "IC50": "< 500 nM"
  },
  {
    "compound": "CC(C)(NCc1ccc2cc(-c3cc(C(N)=O)c(NC(N)=O)s3)ccc2c1)C(=O)O [Example 11]",
    "system_name": "IKBKB (IKK-β) (Homo sapiens, UniProt O14920)",
    "IC50": "< 500 nM"
  },
  {
    "compound": "CCC(CC)(NCc1cccc(-c2cc(C(N)=O)c(NC(N)=O)s2)c1)C(=O)OC1CCCC1 [Example 4]",
    "system_name": "IKBKB (IKK-β) (Homo sapiens, UniProt O14920)",
    "IC50": "> 1000 nM"
  }
]

Kindly review the next compound as well.
Prompt line: What measured IC50 goes with CC(C)(NCc1ccc2cc(-c3cc(C(N)=O)c(NC(N)=O)s3)ccc2c1)C(=O)OC1CCCC1 [Example 7] ?
Response line: > 1000 nM
